This section presents sequences with their documented soluble fraction (log2) values.
Assay: soluble fraction after stress (log2 fold change); higher = more stays soluble; pooled small domains, quantitative proteomics
Details: stress: 50 degC

>  <item sequence>
HMNFDLDSFKQRMTLDGLYFGNEKQDVIALNNLSERYQLTWFDVYQLAKETSSNHKILPKRILVKLQQ

>  <soluble fraction (log2)>
-1.07

$$$$
>  <item sequence>
HMTFPIDINRADTEQLTALPGIGEVLAKRIIAYREENGSFLSTDELKNVEGIGEKRLEAIVDLITIG

>  <soluble fraction (log2)>
0.113

$$$$
>  <item sequence>
HMDTSKIDYSEFITMLDKGEVESVVLKSDTLTVTLKHGTGMAAQTKTVTLMEDLSELTKRLEKAGVKSFDK

>  <soluble fraction (log2)>
0.306

$$$$
>  <item sequence>
HMTEDELLAQFEEILDGYVGKPGGLIPALQTAQKLFGYLPKRVLQLISMKLDIPYSEVTGVVSFYSFFTTV

>  <soluble fraction (log2)>
-0.0145

$$$$
